METHOD_NOTES: Bidirectional permeability assay (Caco-2 cells)
EXPERIMENTAL_CONTEXT: human, Caco-2
METRIC_NAME: Papp A→B at 120 min, 10 µM (×10⁻⁶ cm/s)

1. CCCCC1(CCCC)CN(c2ccc(F)cc2)c2cc(SC)c(O/C=C(\F)C(=O)O)cc2S(=O)(=O)C1; 0.9
2. CCCCC1(CC)CN(c2ccccc2)c2cc(N(C)C)c(O/C=C(\F)C(=O)O)cc2S(=O)(=O)N1 (centres unmarked); 1.4
3. CCCCC1(CC)CN(c2ccccc2)c2cc(N(C)C)c(O/C=C/C(=O)O)cc2S(=O)(=O)N1 (centres unmarked); 22

[P] CCCC1(CC)CN(c2ccccc2)c2cc(SC)c(O/C=C(\F)C(=O)O)cc2S(=O)(=O)C1 (centres unmarked)
[Q] CCCCC1(CC)CN(c2ccc(F)cc2)c2cc(SC)c(O/C=C(\F)C(=O)O)cc2S(=O)(=O)C1 (centres unmarked)
**Q:** Endpoint returns the identifier whose Papp A→B at 120 min, 10 µM is numerically larger, either P or Q . Give the label under which the chosen entry appears.
**A:** P
(P: 3.8 ×10⁻⁶ cm/s, Q: 2.3 ×10⁻⁶ cm/s)

Just for reference, patent US11267794B2 is where these values come from.
